# System: adult S. mansoni
# assaySummary: Viability of adult S. mansoni worms in vitro, microscopic viability score
# Assay type: cell-based, Schistosoma mansoni
# conditions: Table 1, 1 μM, effect on adult worms after 72 h
endpointName: adult (%) 1 μM
# number then unit; no other words

Reference set, count: 3
INSERT INTO assay_data (compound, recordedresult) VALUES
  ('C[C@@H]1C[C@@]2(N=CCS2)[C@]2(O)O[C@@H]3C[C@@]4(C=O)[C@@H](CC[C@@H]5[C@@H]4CC[C@]4(C)[C@@H](C6=CC(=O)OC6)CC[C@]54O)C[C@H]3O[C@@H]2O1 [5z, Uscharin]', '100%'),
  ('C[C@@H]1C[C@@]2(NCCS2)[C@]2(O)O[C@@H]3C[C@@]4(C=O)[C@@H](CC[C@@H]5[C@@H]4CC[C@]4(C)[C@@H](C6=CC(=O)OC6)CC[C@]54O)C[C@H]3O[C@@H]2O1 [5aa, Voruscharin]', '98%'),
  ('C[C@@H]1C[C@H](O)[C@]2(O)O[C@@H]3C[C@@]4(C)[C@@H](CC[C@@H]5[C@@H]4CC[C@]4(C)[C@@H](C6=CC(=O)OC6)CC[C@]54O)C[C@H]3O[C@@H]2O1 [5f, Gomphoside]', '94%');

Kindly review the next compound as well.
Request: Tell me reported adult (%) 1 μM for C[C@@H]1C[C@H](O)[C@]2(O)O[C@@H]3C[C@@]4(C=O)[C@@H](CC[C@@H]5[C@@H]4CC[C@]4(C)[C@@H](C6=CC(=O)OC6)CC[C@]54O)C[C@H]3O[C@@H]2O1 [5a, Calotropin] , tested with adult S. mansoni.
Response: 97%

* * *

# System: adult S. mansoni
# assaySummary: Viability of adult S. mansoni worms in vitro, microscopic viability score
# Type: cell-based, Schistosoma mansoni
# conditions: Schistosoma mansoni, 72 h, Table 1, adult worms after 72 h
endpointName: pIC50
In plain terms, pIC50 is the concentration in mol/L turned into minus its base-10 logarithm.

INSERT INTO assay_data (cpdsmiles, recordedresult) VALUES
  ('C[C@@H]1C[C@H](O)[C@]2(O)O[C@@H]3C[C@@]4(C=O)[C@@H](CC[C@@H]5[C@@H]4CC[C@]4(C)[C@@H](C6=CC(=O)OC6)CC[C@]54O)C[C@H]3O[C@@H]2O1', 6.43);

Pending compound:
Request: Entry C[C@@H]1C[C@@]2(N=CCS2)[C@]2(O)O[C@@H]3C[C@@]4(C=O)[C@@H](CC[C@@H]5[C@@H]4CC[C@]4(C)[C@@H](C6=CC(=O)OC6)CC[C@]54O)C[C@H]3O[C@@H]2O1 has what pIC50?
Response: 7.12
